- experimental_target: human TLR8 (Homo sapiens, UniProt Q9NR97)
- Construct: host or cells: HEK293 (HEK-BLUE-hTLR8)
- Sequence (Q9NR97 27-1041): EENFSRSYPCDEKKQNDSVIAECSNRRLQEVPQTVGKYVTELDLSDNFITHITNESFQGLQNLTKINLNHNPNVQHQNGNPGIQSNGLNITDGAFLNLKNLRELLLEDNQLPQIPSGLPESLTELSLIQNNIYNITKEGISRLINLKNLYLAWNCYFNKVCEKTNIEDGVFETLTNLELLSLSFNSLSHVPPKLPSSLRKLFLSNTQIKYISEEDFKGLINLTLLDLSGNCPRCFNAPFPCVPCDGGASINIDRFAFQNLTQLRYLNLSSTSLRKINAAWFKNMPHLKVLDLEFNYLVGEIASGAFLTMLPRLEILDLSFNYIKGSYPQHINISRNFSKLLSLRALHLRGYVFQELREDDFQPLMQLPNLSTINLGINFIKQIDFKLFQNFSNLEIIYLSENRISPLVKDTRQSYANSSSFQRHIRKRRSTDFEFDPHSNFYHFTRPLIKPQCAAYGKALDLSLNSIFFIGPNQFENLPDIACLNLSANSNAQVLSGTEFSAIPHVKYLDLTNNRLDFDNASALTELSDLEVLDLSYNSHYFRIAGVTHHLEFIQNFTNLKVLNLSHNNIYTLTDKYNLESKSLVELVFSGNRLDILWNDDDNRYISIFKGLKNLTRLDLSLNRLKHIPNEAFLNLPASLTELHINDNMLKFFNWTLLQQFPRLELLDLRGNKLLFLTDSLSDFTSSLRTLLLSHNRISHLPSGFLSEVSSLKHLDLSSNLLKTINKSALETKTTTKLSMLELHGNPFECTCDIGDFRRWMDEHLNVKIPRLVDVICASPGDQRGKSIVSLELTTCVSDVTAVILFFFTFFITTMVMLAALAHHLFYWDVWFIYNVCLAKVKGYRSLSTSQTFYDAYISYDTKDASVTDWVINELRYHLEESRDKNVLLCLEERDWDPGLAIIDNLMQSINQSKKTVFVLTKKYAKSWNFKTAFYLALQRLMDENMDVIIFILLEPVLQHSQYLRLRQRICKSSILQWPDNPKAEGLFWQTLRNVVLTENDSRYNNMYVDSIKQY
- method: TLR activation, HEK-BLUE-hTLR8 SEAP reporter cells
- Assay type: cell-based
- study_conditions: 16-20 hours, SEAP response at least 2× vehicle control, tested 0.01-30 micromolar
- Description: HEK-BLUE-hTLR7 or hTLR8 reporter cells were obtained from InvivoGen, San Diego, CA. […] For each compound, hTLR7, hTLR8, and their respective null control HEK cells were screened. […] Cell culture supernatants containing the SEAP reporter were collected after an incubation period of 16-20 hours in a cell culture incubator (37° C. and 5% CO2), and either analyzed immediately or stored at −80° C. […]
Provide the recorded MEC to Produce TLR Activation TLR 8 for the entries that follow.

Exercise: Form: Entry = CCOC[C@H](C(C)C)n1cnc2c(N)nc3ccccc3c21 [Example 1] | System = human TLR8 (Homo sapiens, UniProt Q9NR97) | MEC to Produce TLR Activation TLR 8 = ____
Solution: 30 µM

Exercise: Param item: CCOC[C@H](n1cnc2c(N)nc3ccccc3c21)C(C)(C)O [Example 6]
Solution: >30 µM

Exercise: Cool, now CCOC[C@H](C(C)C)n1c(C)nc2c(N)nc3ccccc3c21 [Example 3]
Solution: 30 µM

Exercise: Please do the same for CCO[C@@H](C)[C@@H](n1cnc2c(N)nc3ccccc3c21)C(C)(C)O [Example 13] as well.
Solution: 10 µM

Exercise: Another molecule to check: CCOC[C@@H](n1cnc2c(N)nc3ccccc3c21)C1(O)CCCC1 [Example 14]
Solution: 30 µM

----------
Consider the following compounds; for each one, report its MEC to Produce TLR Activation TLR 7.
- experimental_target: human TLR7 (Homo sapiens, UniProt Q9NYK1)
- Construct: host or cells: HEK293 (HEK-BLUE-hTLR7)
- Sequence (Q9NYK1 27-1049): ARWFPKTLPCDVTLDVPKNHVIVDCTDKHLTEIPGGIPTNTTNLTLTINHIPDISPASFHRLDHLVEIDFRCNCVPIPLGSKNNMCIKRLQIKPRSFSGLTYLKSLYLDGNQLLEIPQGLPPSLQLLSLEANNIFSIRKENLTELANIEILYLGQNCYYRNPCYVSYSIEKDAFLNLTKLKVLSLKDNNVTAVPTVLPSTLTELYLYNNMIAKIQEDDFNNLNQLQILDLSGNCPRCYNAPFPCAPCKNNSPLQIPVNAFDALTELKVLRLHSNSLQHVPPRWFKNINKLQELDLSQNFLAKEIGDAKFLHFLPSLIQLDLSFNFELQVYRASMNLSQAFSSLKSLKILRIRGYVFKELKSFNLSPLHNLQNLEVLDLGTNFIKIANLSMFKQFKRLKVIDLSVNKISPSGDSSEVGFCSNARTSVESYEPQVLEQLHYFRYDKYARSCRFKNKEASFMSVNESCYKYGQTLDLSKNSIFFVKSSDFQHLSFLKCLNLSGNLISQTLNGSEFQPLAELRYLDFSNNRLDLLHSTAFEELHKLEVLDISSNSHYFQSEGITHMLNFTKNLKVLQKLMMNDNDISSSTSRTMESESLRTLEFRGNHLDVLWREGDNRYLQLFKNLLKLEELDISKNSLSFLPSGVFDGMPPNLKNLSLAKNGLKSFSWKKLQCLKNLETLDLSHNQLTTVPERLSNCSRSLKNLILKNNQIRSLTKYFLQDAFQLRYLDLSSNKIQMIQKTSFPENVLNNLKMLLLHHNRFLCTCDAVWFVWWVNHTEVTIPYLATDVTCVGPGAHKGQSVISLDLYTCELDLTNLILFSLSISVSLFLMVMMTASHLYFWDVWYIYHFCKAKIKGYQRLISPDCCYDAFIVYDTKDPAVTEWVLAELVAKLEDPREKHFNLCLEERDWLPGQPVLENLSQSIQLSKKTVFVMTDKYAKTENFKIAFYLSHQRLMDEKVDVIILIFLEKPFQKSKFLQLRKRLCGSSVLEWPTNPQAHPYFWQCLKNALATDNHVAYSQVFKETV
- method: TLR activation, HEK-BLUE-hTLR7 SEAP reporter cells
- Type: cell-based
- study_conditions: 16-20 hours, SEAP response at least 2× vehicle control, tested 0.01-30 micromolar
Number only, in µM; omit the unit.

Exercise: Could you tell me which MEC to Produce TLR Activation TLR 7 is on file for CCOC[C@@H](n1c(C)nc2c(N)nc3ccccc3c21)C(C)(C)O ?
Solution: 0.37

Exercise: Same for CCOC[C@@H](n1cnc2c(N)nc3ccccc3c21)C1(O)CCCC1
Solution: 0.04

Exercise: Another compound: CCOC[C@H](C(C)C)n1cnc2c(N)nc3ccccc3c21
Solution: 0.12

Exercise: Proceed to CCOC[C@@H](n1c(CC)nc2c(N)nc3ccccc3c21)C(C)(C)O
Solution: 10
